Reported binding signal values are given for each entry in this list.
# tgt: T1, UNK ZnF1-6 (called full-length) (human, UniProt Q9C0B0 30-357)
# T1 sequence: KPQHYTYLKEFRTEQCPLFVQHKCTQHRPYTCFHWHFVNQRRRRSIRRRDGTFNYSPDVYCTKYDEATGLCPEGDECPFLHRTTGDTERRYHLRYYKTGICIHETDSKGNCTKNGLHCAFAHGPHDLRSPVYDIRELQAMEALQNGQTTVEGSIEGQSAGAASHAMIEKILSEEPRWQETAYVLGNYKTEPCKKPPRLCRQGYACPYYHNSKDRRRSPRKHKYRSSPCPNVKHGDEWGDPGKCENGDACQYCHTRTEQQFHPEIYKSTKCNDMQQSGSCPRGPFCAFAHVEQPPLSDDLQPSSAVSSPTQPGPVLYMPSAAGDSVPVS
# protocol.details: nsRBNS (natural sequence RNA bind-n-seq); RBNS binding buffer (assumed for nsRBNS): 25 mM Tris pH 7.5, 150 mM KCl, 3 mM MgCl2, 0.01% Triton X-100, 500 ug/ml BSA, 20 U/ml SUPERase-In, 4 C; UNK is unkempt and MSI1 is Musashi-1; names of the RNAs are library labels; protein concentration not given here; high values mean tight binding
In all, about 5,800 sequences were measured (“enrichment r”: median about 0.68, highest 2% from about 11 on). These entries were drawn from the full list.
Your answer should be a plain number; it is taken to be in enrichment R.

chr20:35276351:35277713:-|three_prime_utr|ENSG00000126005|control|control|control (ssRNA) RNA: GGGAGUUCUACAGUCCGACGAUCCUCCUCUCCCCACGUCCCUGCGUCUCUUACACCCCCUCCCACCCGAGGCUCCCCAGAGAUAGCAGAGAAUUCGAAGAGGUCGCCGGGGACUGGAAAGAAGUCCCGGCAGGGCCGCCUUCGCAACAGAGGAUUGAGCAUCA = 0.869

Data request: Retrieve binding signal measured for chr17:42842016:42842117:+|3pUTR|ENSG00000131467|msi1|FALSE|unique (ssRNA) RNA: GGGAGUUCUACAGUCCGACGAUCUUACUGUUUCUUUCCUCUGUGGGGCAUUGGAUCCUCCCACAGUUGCCCUGGUGAUGACUUAGGGCUUCCCAUCUGUGUACAUCCCACUUUGAAUCUUGAUCGUGACAAGAAAUACCUUAGCAACAGAGGAUUGAGCAUCA and print it.
Data returned: 0.557

Data request: Give binding signal for chr19:51415897:51416167:-|CDS|ENSG00000142512|control|control|control (ssRNA) RNA: GGGAGUUCUACAGUCCGACGAUCGCCACACUGAGCUGGGUCCUGCAGAACAGAGUCCUCUCCUCGUCCCAUCCCUGGGGCCCUAGACCCCUGGGGCUGGAGCUGCCCGGGGUGAAGGCUGGGGAUUCAGGGCGCUACACCUGCCAACAGAGGAUUGAGCAUCA
Data returned: 0.641

Provenance of the data: paper PMC12136788
